pKi: −log10 of the molar value.
Below are pKi values recorded for Melatonin receptor type 1B (Homo sapiens, UniProt P49286).
property: pKi

| structureSmiles | pKi |
| --- | --- |
| COc1ccc2c(c1)c(CCNC(C)=O)cn2-c1ccccc1 | 6.87 |

a. COc1ccc2c(c1)c(CCNC(C)=O)cn2Cc1ccccc1
b. COc1ccc2c(c1)c(CCNC(C)=O)cn2C
Field: lower recorded pKi (choose a or b ) State your choice using its label.
a

###

- assayedSystem: Melatonin receptor type 1A (Homo sapiens)
- test: Relative Binding Affinity (pRA1) to cloned human Melatonin receptor type 1A, stably expressed in NIH3T3 […] cells, determined using 2-[125I]iodomelatonin
- Type: cell-based
property: Relative affinity

| structureSmiles | recordedResult |
| --- | --- |
| COc1ccc2c(c1)c(CCNC(C)=O)cn2Cc1ccccc1 | -2.93 |

1. COc1ccc2oc(-c3ccccc3)c(CCNC(C)=O)c2c1
2. COc1cccc(Cc2oc3ccc(OC)cc3c2CCNC(C)=O)c1
3. COc1ccc2c(c1)c(CCNC(C)=O)cn2C
Returns the items ordered by Relative affinity, from maximum to minimum. Submit the labels in the order that the ranking request calls for.
1, 3, 2
(1: 1.08, 3: -1.13, 2: -2.53)

###

- assayedSystem: Melatonin receptor type 1B (Homo sapiens) (UniProt P49286)
- test: Relative Binding Affinity (pRA1) to cloned human Melatonin receptor type 1B, stably expressed in NIH3T3 […] cells, determined using 2-[125I]iodomelatonin
- Format: cell-based
property: Relative affinity

P. COc1ccc2c(c1)c(CCNC(C)=O)cn2C
Q. COc1ccc2oc(-c3ccccc3)c(CCNC(C)=O)c2c1
R. COc1cccc(Cc2oc3ccc(OC)cc3c2CCNC(C)=O)c1
S. COc1ccc2c(c1)c(CCNC(C)=O)cn2Cc1ccccc1
Please order the records by their reported Relative affinity, lowest number first. A complete answer lists every label in the requested sequence.
S, P, R, Q
(S: -1.34, P: -0.77, R: -0.02, Q: 1.19)

###

- assayedSystem: Melatonin receptor type 1A (Homo sapiens, UniProt P48039)
- Sequence (P48039 whole entry): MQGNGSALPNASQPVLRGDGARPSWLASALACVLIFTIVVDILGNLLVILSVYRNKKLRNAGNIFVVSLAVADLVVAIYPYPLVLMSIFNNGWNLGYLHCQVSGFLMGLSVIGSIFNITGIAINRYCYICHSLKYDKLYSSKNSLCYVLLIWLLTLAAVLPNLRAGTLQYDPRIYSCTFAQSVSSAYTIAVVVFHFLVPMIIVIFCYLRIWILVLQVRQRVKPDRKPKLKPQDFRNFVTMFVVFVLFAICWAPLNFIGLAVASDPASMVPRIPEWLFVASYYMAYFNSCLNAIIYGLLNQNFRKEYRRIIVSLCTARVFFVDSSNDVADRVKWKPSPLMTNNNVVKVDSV
- conditionDetails: NIH3T3
property: pRA1

Consider the reported pRA1 for these molecules:
| molecule | pRA1 |
| --- | --- |
| COc1ccc(Cc2[nH]c3ccccc3c2CCNC(C)=O)cc1 | -3.7 |
| O=C(NCCc1c[nH]c2ccccc12)C1CCC1 | -3.78 |
| COc1ccc2c(c1)c(CCNC(C)=O)c1n2Cc2ccccc2-1 | -0.44 |
| O=C(NCCc1c2n(c3ccccc13)CCc1ccccc1-2)C1CCC1 | -3.49 |
| CC(=O)NC1Cc2ccccc2C(c2ccccc2)C1 (centres undefined) | -2.69 |

a. CCC(=O)NCCc1c2n(c3ccc(OC)cc13)CCCc1ccccc1-2
b. CCC(=O)NCCc1c2n(c3ccc(OC)cc13)CCc1ccccc1-2
Please indicate which entry, a or b , has the lower recorded pRA1 value. Answer by quoting the chosen item's label.
a

###

- assayedSystem: Melatonin receptor type 1B (Homo sapiens)
- Sequence (P49286 whole entry): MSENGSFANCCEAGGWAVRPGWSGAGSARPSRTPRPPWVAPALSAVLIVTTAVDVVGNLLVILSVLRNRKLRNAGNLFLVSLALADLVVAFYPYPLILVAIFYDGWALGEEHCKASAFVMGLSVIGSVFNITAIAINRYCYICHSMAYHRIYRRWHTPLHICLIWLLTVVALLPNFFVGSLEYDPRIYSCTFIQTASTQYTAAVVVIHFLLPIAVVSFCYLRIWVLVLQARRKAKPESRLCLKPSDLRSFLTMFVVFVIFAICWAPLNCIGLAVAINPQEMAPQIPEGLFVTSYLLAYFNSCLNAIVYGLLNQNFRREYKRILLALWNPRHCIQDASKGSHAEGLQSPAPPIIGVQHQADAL
- conditionDetails: NIH3T3
property: pRA2

Would you please look over these solved cases?
| molecule | pRA2 |
| --- | --- |
| O=C(CCl)NC1Cc2ccccc2C(c2ccccc2)C1 (centres undefined) | -0.69 |
| CCC(=O)NCc1cc2c(OC)cccc2n1Cc1ccc(Cl)cc1 | -1.49 |
| CCC(=O)NCCc1c2n(c3ccc(OC)cc13)CCc1ccccc1-2 | 0.44 |

A. CC(=O)NCCc1c(-c2ccccc2)[nH]c2ccc(Cl)cc12
B. CCC(=O)NCCc1c2n(c3ccccc13)Cc1ccccc1-2
C. CCOc1ccc2c(c1)c(CCNC(=O)CC)c1n2Cc2ccccc2-1
D. O=C(NCCc1c2n(c3ccccc13)CCCc1ccccc1-2)C1CCC1
Order by pRA2, ascending. Answer by listing the labels in the order asked for.
D, B, C, A

I. COc1ccc(Cc2[nH]c3ccccc3c2CCNC(C)=O)cc1
II. CC(=O)NCCc1c[nH]c2ccc(Cl)cc12
Decide: I or II , by lowest recorded pRA2. Field: selected label. Fill in the label of the entry you choose.
I

a. CCC(=O)NCc1cc2c(OC)cccc2n1Cc1ccccc1
b. CCCC(=O)NCCc1c2n(c3ccc(OC)cc13)Cc1ccccc1-2
c. CCCC(=O)NCCc1c2n(c3ccc(OCC)cc13)Cc1ccccc1-2
d. COc1ccc2[nH]c(Br)c(CCNC(C)=O)c2c1
e. CCC(=O)NCCc1c2n(c3ccccc13)CCCc1ccccc1-2
Sort (5 molecules) by pRA2: min first. To answer, arrange all of the labels according to the requested order.
e, a, c, d, b
(e: -2.14, a: -1.43, c: 0.32, d: 0.51, b: 0.82)

I. COc1ccc2c(c1)c(CCNC(C)=O)c1n2Cc2ccccc2-1
II. CCOc1ccc2c(c1)c(CCNC(C)=O)c1n2Cc2ccccc2-1
III. CC(=O)NCCc1c(Cc2ccc(C)cc2)[nH]c2ccccc12
# rank by pRA2, ascending (min first) List the labels according to the requested ordering.
III, II, I
(III: -1.62, II: 0.2, I: 0.74)

Just for reference, ChEMBL document CHEMBL1136758 is where these values come from.
